assay: yeast display, Sf9 membrane polyspecificity reagent, FACS + sequencing; frameworks hold sequencing errors
endpoint: polyreactivity (PSR sort gate)

QVQLVESGGGLVQAGGSLRLSCAASGRTFGQYAMGWYRQAPGKEREFVAGITWSGGSTSYADSVKGRFTISRDNAKNTVYLQMNSLKPEDTAVYYCIAVYWKPSLEYGYWGQGTQVTVSS :: high polyreactivity
QVQLVESGGGLVQAGGSLRLSCAASGSILRSNAMGWYIQAPGKERELVATITNSGGSTYSDSVKGSFTISRDNAKNTVYVQMNSLKPEVTAVYYCAKAGAGESIAKYDYWGQGTQVTVSS :: low polyreactivity
QVQLVESGGGLVQAGGSLRLSCAASGSTSSNNAMGWYRQAPGKEREFVADISSRGGSTYYADSVKGRFTISRDNAKNTVYLQMNSLKPEDTAVYYCARTRFWLRYRLFDYWGQGTHVTVSS :: low polyreactivity
QVQLVESGGGLVQAGGSLRLSCAASGYTFSYNTMGWYRQAPGKERELVAAIRLSGGSTYYADSVKGRFTSSRDNAKNTVYLQMNSLKPEDTAVYYCAARQIITKFYTSNGVSYYYWGQGTQETVSS :: high polyreactivity

Read the next record carefully.
State the recorded polyreactivity (PSR sort gate) for this entry: `QVQLVESGGGLVQAGGSLRLSCAASGRIFTRYAMGWYRQAPGTERELVAVITRSGGSTYYADSVKGRFTISRDNAKNTVYLQMNSLKPEDTAVYYCAAKYYGEMYYWGQGTQVTVSS`
low polyreactivity

* * *

experiment: yeast display, Sf9 membrane polyspecificity reagent, FACS + sequencing; frameworks hold sequencing errors
endpoint: polyreactivity (PSR sort gate)

Guide cases for polyreactivity (PSR sort gate), answers given:
QVQLVESRGCLVQPGGSLLLSCAASGIIFGHYVMGWYRQAPGKERELVAAISSRGGNTYYADSVKGRFTISRDNAKNTVYLQMNSLKPEDTAVYYCAADRYATPMDYWGQGTQVTVSS :: high polyreactivity
QVQLVESGGGLVQAGGSLRLSCAASGRTFGPYVMGWYRQAPGKERELVAAISFSGGSTYYADSVKGRFTISRDNAKNTVYLQMNSLKPEDTAVYYCAAPATRPYYTGYDYWGQGTQVTVSS :: high polyreactivity
QVQRVESGGGIVQAGGSHRLSCAASGSIFRYYAMGWYRQAPGKEREFVAAISSSGGSTYYADSVKGRFTISRDNAKNTVYLQMNSLKPEDTAVYYCARDWPSYYARQYDYWGQGTQVTVSS :: high polyreactivity
QVQLVESGGGLVQAGGSLRLSCAASGRIFGGYAMGWYRQAPGKERELVAVISRGGSITDYADSVKGRFTISRDNAKNTVYLQMNSLKPEDTAVYYCAARICGGSYWGQGTQVTVSS :: high polyreactivity
QVQLVESGGGLVQAGGSLRLSCAASGFTFWDYTMGWYRQAPGKERELVAAISSSGGGTYYADSVKGRFTISRDNAKNTVYLQMNSLKPVDTAVYYCAASVWYYPMDYWGQGTQVTVSS :: low polyreactivity

State the recorded polyreactivity (PSR sort gate) for this entry: `QVQLVESGGGLVQAGGSLRVSSAASGSIFDYYEMGWYRQAPGKEREMVAAINISGGDTYYADSVKGRFTISRDNAKNTVYLQMNSLNPEDTAVYYCAADWVTWWFSRVGWDYGYWGQGTQVTVSS`
low polyreactivity

Check `QVQLVASGGGLVQAGGSLRLSCAASGRIFSSNAMGWSRQAPGKEWELVAAITKSGGGTYYADSVKGRFTISRDNAKNTVYLQLNSLKPEDTAVYYCAKGQYRSSGYDYWGQGTQVTVSS` too.
low polyreactivity
